Reported IC50 by item:
target: Bile salt export pump (Homo sapiens, UniProt O95342); experiment: TP_TRANSPORTER: increase in bodipy intracellular accumulation (Bodipy: 0.2 uM) in SK-E2 cells (expressing BSEP); assay type: functional, cell-based
Sequence (O95342 whole entry): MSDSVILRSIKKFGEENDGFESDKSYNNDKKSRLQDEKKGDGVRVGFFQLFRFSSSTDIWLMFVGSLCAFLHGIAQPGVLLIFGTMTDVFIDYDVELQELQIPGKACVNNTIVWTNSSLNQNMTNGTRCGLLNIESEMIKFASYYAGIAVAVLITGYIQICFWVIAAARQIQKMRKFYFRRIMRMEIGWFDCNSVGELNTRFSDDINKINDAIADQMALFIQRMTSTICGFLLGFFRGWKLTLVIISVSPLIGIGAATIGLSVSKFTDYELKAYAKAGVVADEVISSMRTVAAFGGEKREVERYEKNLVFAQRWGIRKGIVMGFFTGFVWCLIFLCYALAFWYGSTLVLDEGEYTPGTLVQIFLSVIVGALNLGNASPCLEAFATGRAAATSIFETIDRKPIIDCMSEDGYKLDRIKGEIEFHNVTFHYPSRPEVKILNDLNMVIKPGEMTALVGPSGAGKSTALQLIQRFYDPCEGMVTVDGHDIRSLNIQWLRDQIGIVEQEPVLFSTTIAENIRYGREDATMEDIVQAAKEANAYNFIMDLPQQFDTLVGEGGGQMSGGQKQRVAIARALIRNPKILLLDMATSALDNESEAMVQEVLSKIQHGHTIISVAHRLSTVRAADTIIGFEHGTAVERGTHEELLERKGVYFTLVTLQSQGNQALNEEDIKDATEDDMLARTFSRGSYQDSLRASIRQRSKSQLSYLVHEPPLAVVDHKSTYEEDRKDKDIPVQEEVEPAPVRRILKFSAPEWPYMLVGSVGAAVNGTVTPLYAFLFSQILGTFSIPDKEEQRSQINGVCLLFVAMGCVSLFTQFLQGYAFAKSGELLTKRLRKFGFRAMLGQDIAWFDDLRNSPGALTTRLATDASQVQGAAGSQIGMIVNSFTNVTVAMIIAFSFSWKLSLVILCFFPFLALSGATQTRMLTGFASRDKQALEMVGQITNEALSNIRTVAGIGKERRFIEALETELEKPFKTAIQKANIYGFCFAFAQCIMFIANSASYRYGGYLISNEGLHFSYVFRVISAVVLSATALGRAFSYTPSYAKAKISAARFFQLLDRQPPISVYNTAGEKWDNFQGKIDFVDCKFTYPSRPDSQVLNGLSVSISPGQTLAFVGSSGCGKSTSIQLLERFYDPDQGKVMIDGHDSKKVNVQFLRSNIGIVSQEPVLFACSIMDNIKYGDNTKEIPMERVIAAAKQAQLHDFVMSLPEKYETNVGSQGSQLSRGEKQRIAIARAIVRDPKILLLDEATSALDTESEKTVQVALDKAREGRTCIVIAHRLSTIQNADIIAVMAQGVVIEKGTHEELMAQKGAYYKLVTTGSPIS
Give the value in µM but do not write µM after it.

In the examples that follow, each entry is paired with its recorded IC50.
# MOLECULE, UNIT ANNOTATION, IC50
rows = [
    ("CN(C)CCCN1c2ccccc2Sc2ccc(Cl)cc21 [CHLORPROMAZINE]", "µM", 30.9),
    ("O=C(O[C@@H]1Cc2c(O)cc(O)cc2O[C@@H]1c1cc(O)c(O)c(O)c1)c1cc(O)c(O)c(O)c1 [EPIGALOCATECHIN GALLATE]", "µM", 214),
    ("CO[C@H]1/C=C/O[C@@]2(C)Oc3c(C)c(O)c4c(O)c(cc(O)c4c3C2=O)NC(=O)/C(C)=C\\C=C\\[C@H](C)[C@H](O)[C@@H](C)[C@@H](O)[C@@H](C)[C@H](OC(C)=O)[C@@H]1C [RIFAMYCIN]", "µM", 206),
]

Please find the next molecule below.
QUERY: Quick one: give measured IC50 for CC[C@]1(O)C[C@@H]2CN(CCc3c([nH]c4ccccc34)[C@@](C(=O)OC)(c3cc4c(cc3OC)N(C)[C@H]3[C@@](O)(C(=O)OC)[C@H](OC(C)=O)[C@]5(CC)C=CCN6CC[C@]43[C@@H]65)C2)C1 [VINBLASTINE]
RESULT: 115

---

Reported pIC50 by item:
molecular target: UniProt:O95342; test: TP_TRANSPORTER: increase in dihydrofluorescein intracellular accumulation (dihydrofluorescein: 1 uM) in SK-E2 cells (expressing BSEP); format: functional, cell-based
The scale used: pIC50 is minus the common logarithm of the concentration in molar units.

# MOLECULE, EXPERIMENTAL VALUE
measured = [
    ("CC[C@]1(O)C[C@@H]2CN(CCc3c([nH]c4ccccc34)[C@@](C(=O)OC)(c3cc4c(cc3OC)N(C)[C@H]3[C@@](O)(C(=O)OC)[C@H](OC(C)=O)[C@]5(CC)C=CCN6CC[C@]43[C@@H]65)C2)C1", 4.21),
    ("Cc1c(C)c2c(c(C)c1O)CCC(C)(COc1ccc(CC3SC(=O)NC3=O)cc1)O2 (stereo not drawn)", 4.18),
    ("CO[C@H]1/C=C/O[C@@]2(C)Oc3c(C)c(O)c4c(O)c(cc(O)c4c3C2=O)NC(=O)/C(C)=C\\C=C\\[C@H](C)[C@H](O)[C@@H](C)[C@@H](O)[C@@H](C)[C@H](OC(C)=O)[C@@H]1C", 4.91),
    ("COC(=O)[C@H]1[C@H]2C[C@@H]3c4[nH]c5cc(OC)ccc5c4CCN3C[C@H]2C[C@@H](OC(=O)c2cc(OC)c(OC)c(OC)c2)[C@@H]1OC", 4.99),
    ("CC(C)[C@@H]1NC(=O)[C@H](C)OC(=O)[C@@H](C(C)C)NC(=O)[C@@H](C(C)C)OC(=O)[C@H](C(C)C)NC(=O)[C@H](C)OC(=O)[C@@H](C(C)C)NC(=O)[C@@H](C(C)C)OC(=O)[C@H](C(C)C)NC(=O)[C@H](C)OC(=O)[C@@H](C(C)C)NC(=O)[C@@H](C(C)C)OC1=O", 5.14),
]

QUERY: Quick one: give measured pIC50 for "CN(C)CCCN1c2ccccc2Sc2ccc(Cl)cc21"
RESULT: 4.47

QUERY: Quick one: give measured pIC50 for "CC(C)/N=c1\cc2n(-c3ccc(Cl)cc3)c3ccccc3nc-2cc1Nc1ccc(Cl)cc1"
RESULT: 4.54

QUERY: Quick one: give measured pIC50 for "C[C@H](CCC(=O)NCCS(=O)(=O)O)[C@H]1CC[C@H]2[C@@H]3CC[C@@H]4C[C@H](O)CC[C@]4(C)[C@H]3CC[C@]12C"
RESULT: 3.72
